conditions: buffer; pH 7.4; 200.0 µM
So I've got a bunch of molecules here, and I need their solubility kinetic values.
One number for each entry, in µg/mL.

List solubility kinetic for every entry below, keeping the order given.
1. O=C(COC(=O)c1ccccc1O)Nc1ncc(Cl)cc1Cl
2. CCN(CC)C(=O)c1cc(-c2ccc3c(c2)OCO3)on1

Solution:
23.5
20.8

---

Assign solubility kinetic to each entry below.
conditions: buffer; pH 7.4; 200.0 µM

The examples below pair each entry with its known result.
[
  {
    "molecule": "O=C(CCNC(=O)c1ccccc1Cl)NCc1ccco1",
    "solubility kinetic": "> 46 µg/mL"
  },
  {
    "molecule": "Cc1ccc(C(C)C)cc1OCC(=O)NC1CCCCCCC1",
    "solubility kinetic": "< 0.7 µg/mL"
  },
  {
    "molecule": "CC1CCCCC1NC(=O)c1ccc2c(c1)OCCO2 (configuration not stated)",
    "solubility kinetic": "> 41.3 µg/mL"
  },
  {
    "molecule": "COc1ccc(NS(=O)(=O)c2cn(C)c(=O)n(C)c2=O)cc1",
    "solubility kinetic": "> 48.8 µg/mL"
  }
]

For the 3 molecules below, give their solubility kinetic values.
1. CC(NC(=O)N1CCOCC1)c1ccccc1 (configuration not stated)
2. Cc1ccc(NC(=O)CN2C(=O)NC(C)(CC(C)C)C2=O)cc1F (configuration not stated)
3. O=C(NC1CCCC1)C1CC(=O)N(c2ccccc2)C1 (configuration not stated)

Solution:
> 35.1 µg/mL
> 50.3 µg/mL
> 40.9 µg/mL

---

settings: buffer; pH 7.4; 200.0 µM
value kind: solubility kinetic

Illustrative cases are given below, each with its answer.
[
  {
    "smiles data": "CCCOc1ccc(/C=C/c2c([N+](=O)[O-])c(=O)n(C)c(=O)n2C)cc1",
    "solubility kinetic": "< 0.2 µg/mL"
  },
  {
    "smiles data": "O=C(Nc1ccccc1N1CCOCC1)c1ccncc1",
    "solubility kinetic": "> 42.5 µg/mL"
  },
  {
    "smiles data": "CC(C)C(=O)NNC(=O)c1csc(-c2cccs2)n1",
    "solubility kinetic": "> 44.3 µg/mL"
  },
  {
    "smiles data": "O=C(Nc1c(O)c2ccccc2[nH]c1=O)c1ccco1",
    "solubility kinetic": "> 40.5 µg/mL"
  },
  {
    "smiles data": "O=C(COC(=O)CSc1ccc(Cl)cc1)Nc1ccccc1",
    "solubility kinetic": "> 50.4 µg/mL"
  },
  {
    "smiles data": "CC(C)(CNS(=O)(=O)c1ccc(Br)s1)N1CCOCC1",
    "solubility kinetic": "> 57.5 µg/mL"
  },
  {
    "smiles data": "CCC(=O)c1ccc(OCC(=O)N2CCN(CC(=O)Nc3ccccc3C(F)(F)F)CC2)cc1",
    "solubility kinetic": "> 71.6 µg/mL"
  }
]

Okay, now this compound:
Problem: Given the entry CC(=O)Nc1ccc(S(=O)(=O)Nc2cccc3cccnc23)cc1 , report its measured solubility kinetic.
Solution: > 51.2 µg/mL

---

conditions: buffer; pH 7.4; 200.0 µM
Assignment: determine reported solubility kinetic for the given compounds.

[
  {
    "compound": "CCc1ccccc1NC(=O)CN(C)C(=O)COC(=O)c1cccnc1Cl",
    "value kind": "solubility kinetic",
    "value measured": "> 58.5 µg/mL"
  },
  {
    "compound": "Cc1ccc(N2CCN(C(=O)NC3CCCCC3)CC2C)cc1 (stereo not given)",
    "value kind": "solubility kinetic",
    "value measured": "> 47.3 µg/mL"
  },
  {
    "compound": "CCCC(=O)OCC(=O)NC1CCCc2ccccc21 (stereo not given)",
    "value kind": "solubility kinetic",
    "value measured": "> 41.3 µg/mL"
  },
  {
    "compound": "CSc1nc2c(C)c(C)c(C)c(C)c2[nH]1",
    "value kind": "solubility kinetic",
    "value measured": "3.2 µg/mL"
  }
]

# context switch: different compound, same solubility kinetic
Problem: Entry under review: COC(=O)c1ccc(COC(=O)CNC(=O)c2ccc(OC)cc2)cc1 . Reported solubility kinetic?
Solution: 17.3 µg/mL

---

conditions: buffer; pH 7.4; 200.0 µM
value kind: solubility kinetic (µg/mL)
Numbers only, in µg/mL.

Some solved cases for reference:
[
  {
    "molecule": "O=C1C(Cc2ccccc2O)NC(=S)N1c1ccccc1 (stereo not drawn)",
    "solubility kinetic [µg/mL]": 44.6
  },
  {
    "molecule": "CC(=O)Nc1ccc(C(=O)OCc2ccc(F)cc2Cl)cc1",
    "solubility kinetic [µg/mL]": 1.7
  },
  {
    "molecule": "CC(=O)Nc1ccc(S(=O)(=O)NCCc2ccccn2)cc1",
    "solubility kinetic [µg/mL]": 44
  },
  {
    "molecule": "CC(C)c1ccc(N(CC(=O)N2CCOCC2)S(C)(=O)=O)cc1",
    "solubility kinetic [µg/mL]": 32.9
  },
  {
    "molecule": "CCOC(=O)N1CCN(CCCc2ccccc2)CC1",
    "solubility kinetic [µg/mL]": 30.9
  },
  {
    "molecule": "Cc1cc(N)ccc1NC(=O)CN1CCCC1",
    "solubility kinetic [µg/mL]": 23.1
  },
  {
    "molecule": "COCCN1Cc2cccc(C(=O)NCCc3ccccc3)c2C1=O",
    "solubility kinetic [µg/mL]": 41.5
  }
]

// next item, solubility kinetic requested
Problem: Please report the recorded solubility kinetic for Cc1ccc(C(=O)NC(=S)NCc2ccccc2)cc1Br .
Solution: 0.4

---

details: buffer; pH 7.4; 200.0 µM
value kind: solubility kinetic

Would you please look over these solved cases?
[
  {
    "compound": "COc1ccc(NC(=O)c2cc(-c3ccc(C)cc3)on2)cc1OC",
    "value measured": "< 0.4 µg/mL"
  },
  {
    "compound": "COCC(=O)N1CCN(c2cccc(Cl)c2)CC1",
    "value measured": "> 40.3 µg/mL"
  },
  {
    "compound": "O=C(Nc1nccs1)c1ccc[nH]c1=O",
    "value measured": "> 33.2 µg/mL"
  }
]

Give measured solubility kinetic for every item shown.
1. Cc1cc(Nc2ccccc2)n(-c2ccc(C(=O)O)cc2)n1
2. CCOC(=O)c1csc(NC(=O)CN2CCOCC2)n1
3. Cc1ccc(NC(=O)CS(=O)c2ccccc2N)c(C)c1 (stereo unspecified)

Solution:
1. > 44 µg/mL
2. > 44.9 µg/mL
3. > 45.4 µg/mL

---

settings: buffer; pH 7.4; 200.0 µM
value kind: log10 solubility kinetic (log10 of the value in µg/mL)
# values: log10(solubility kinetic), units µg/mL

[
  {
    "compound": "Cc1cccc(OCc2nc3ccccc3n2C)c1.Cl",
    "value measured": 1.48
  },
  {
    "compound": "COc1ccc(NC(=O)c2oc3ccccc3c2CSC)cc1S(=O)(=O)N1CCOCC1",
    "value measured": 0.58
  },
  {
    "compound": "CC1CCCC(NC(=O)CCC(=O)NCc2ccccc2)C1C (stereo unspecified)",
    "value measured": 1.65
  },
  {
    "compound": "CCN1CCN(C(C)CCc2ccccc2)CC1 (stereo unspecified)",
    "value measured": 1.49
  },
  {
    "compound": "Cc1cccnc1NC(=S)NC(=O)c1oc2ccccc2c1C",
    "value measured": 0.67
  },
  {
    "compound": "COc1ccccc1C(=O)COC(=O)C(NC(=O)Cc1ccccc1)C(C)C (stereo unspecified)",
    "value measured": 1.75
  },
  {
    "compound": "Cc1csc(Nc2nc(N)c(C(=O)Nc3ccccc3)o2)n1",
    "value measured": 0.52
  },
  {
    "compound": "CC1CCC2(CC1)NC(=O)N(CC(=O)N1c3ccccc3CC1C)C2=O (stereo unspecified)",
    "value measured": 0.72
  },
  {
    "compound": "CCCC1=C(C(=O)OCC)C(c2ccco2)C(C#N)=C(N)O1 (stereo unspecified)",
    "value measured": 1.48
  },
  {
    "compound": "CCC(=O)Nc1cccc(C(=O)c2ccc(C)c(C)c2)c1",
    "value measured": 1.45
  }
]

Respectfully, I request log10 solubility kinetic for each entry included below.
1. NC(=O)CSc1nc(C23CC4CC(CC(C4)C2)C3)nc2ccccc12
2. O=C(C1CCCCC1)N1CCN(c2nc(-c3ccc(F)cc3)cs2)CC1

Solution:
1. 0.08
2. 0.18

Below are some compounds; for each one, tell me its log10 solubility kinetic.
1. COc1ccc2nc(C)cc(Nc3cccc(C(=O)O)c3)c2c1
2. Cc1nc(N)nc(SCc2ccc([N+](=O)[O-])cc2)c1N
3. O=C(COc1cccnc1[N+](=O)[O-])Nc1c(Cl)cccc1Cl
4. COc1ccc(NC(=O)CCN2C(=O)c3ccccc3C2=O)cc1
5. O=C(Nc1nc(-c2ccccc2)ns1)c1ccncc1
6. COc1cc(N2CCCC2)ccc1C=O

Solution:
1. 0.52
2. 1.21
3. 1.37
4. 1.36
5. 0.38
6. 1.46

Batch request: log10 solubility kinetic per item, same order as input.
1. CCOC(=O)c1sc2nc(C)[nH]c(=O)c2c1C
2. C[C@@H]1CN(Cc2nc(-c3cnccn3)no2)C[C@H](C)O1
3. O=C(CN1CCN(c2ccc(Cl)cc2)CC1)c1ccccc1
4. CSc1cccc(NC(=O)CNC(=O)C2CCCCC2)c1
5. Nc1ccc(C(=O)OCc2nc3ccccc3s2)cc1
6. CCc1ccc(NC(=O)c2[nH]c(C)c(C(C)=O)c2C)cc1
7. Clc1ccc2scc(CN3CCCC3)c2c1
8. O=C(OCC(=O)N1CCCc2ccccc21)c1ccccc1OC(F)F

Solution:
1. 0.43
2. 1.49
3. 1.27
4. 1.36
5. 1.43
6. 0.71
7. 1.55
8. 1.47
